# assay-name: Pharmacokinetics following a single oral dose in male Sprague-Dawley rats
# Type: in vivo
# measurement-parameters: rat, single po dose 10 mg/kg, plasma
property-name: Cmax (ng/mL)

Use these answered entries as a reference point.
Query: Query (compound): `O=C(NCc1cccc2[nH]ncc12)c1cn(Cc2ccc(Cn3ccccc3=O)cc2)nc1C(F)(F)F` ; field requested: Cmax
Response: 56

Query: // same read-out, input: `Cc1cnn(Cc2ccc(Cn3cc(C(=O)NCc4ccc5c(N)nccc5c4)c(C4CC4)n3)cc2)c1`
Response: 155

Query: // same read-out, input: `Cc1cnn(Cc2ccc(Cn3cc(C(=O)NCc4cnc5[nH]ccc5c4)cn3)cc2)c1`
Response: 98

a = Cc1cnn(Cc2ccc(Cn3cc(C(=O)NCc4ccc5c(N)nccc5c4)c(C(F)(F)F)n3)cc2)c1
b = Cc1cnn(Cc2ccc(Cn3cc(C(=O)NCc4ccc5c(N)nccc5c4)c(C)n3)cc2)c1
Query: Between a and b , which one shows the larger Cmax value? // output: label of the selected item
Response: a
(a: 642 ng/mL, b: 134 ng/mL)

###

# study-system: Human plasma kallikrein (Homo sapiens (Human), UniProt P03952)
# Sequence (P03952 391-638): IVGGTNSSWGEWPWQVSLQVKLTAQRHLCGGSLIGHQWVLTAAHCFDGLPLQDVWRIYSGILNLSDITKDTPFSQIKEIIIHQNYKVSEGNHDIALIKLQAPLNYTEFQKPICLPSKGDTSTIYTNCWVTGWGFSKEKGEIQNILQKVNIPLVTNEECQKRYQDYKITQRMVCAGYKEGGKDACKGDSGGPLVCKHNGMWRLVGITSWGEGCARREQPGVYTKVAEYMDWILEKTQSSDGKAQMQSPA
# Sequence (P03952 20-390 partner): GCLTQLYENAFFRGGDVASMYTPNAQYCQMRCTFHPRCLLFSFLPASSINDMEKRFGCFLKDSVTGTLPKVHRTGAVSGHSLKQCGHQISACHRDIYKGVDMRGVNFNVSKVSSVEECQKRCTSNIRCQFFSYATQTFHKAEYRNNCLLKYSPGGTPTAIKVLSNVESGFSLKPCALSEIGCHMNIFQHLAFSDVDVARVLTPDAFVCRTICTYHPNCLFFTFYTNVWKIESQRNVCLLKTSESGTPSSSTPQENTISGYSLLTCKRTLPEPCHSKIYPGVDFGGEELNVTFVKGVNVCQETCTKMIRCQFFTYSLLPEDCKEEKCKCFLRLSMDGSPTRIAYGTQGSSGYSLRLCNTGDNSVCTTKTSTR
# assay-name: Determination of the IC50 for plasma kallikrein (fluorogenic substrate H-DPro-Phe-Arg-AFC)
# measurement-parameters: 37° C., read-out: IC50 (human PKaI)
property-name: IC50 (nM)

P = Cc1cc(C(=O)NCc2ccc3c(N)nccc3c2)c(C)n1Cc1ccc(Cn2ccccc2=O)cc1
Q = COc1cc(N2CCCC2)ncc1Cn1cc(C(=O)NCc2ccc3c(N)nccc3c2)c(C2CC2)n1
R = COc1cc(Cn2cc(C(=O)NCc3ccc4c(N)nccc4c3)c(C3CC3)n2)cnc1N1CCCC1
S = Nc1nccc2cc(CNC(=O)c3cn(Cc4ccnc(N5CCCC5)c4)nc3C(F)(F)F)ccc12
Query: Sort by IC50 with smallest numbers at the start of the list. Returns: the labels listed in the requested order.
Response: P, R, Q, S

a = O=C(NCc1n[nH]c2ccc(Cl)cc12)c1cn(Cc2ccc(N3CCCC3)nc2)nc1C(F)(F)F
b = Cc1cc(C(=O)NCc2cnc3[nH]ccc3c2)c(C)n1Cc1csc(-c2ccccc2)n1
Query: Between a and b , which one shows the larger IC50 value? // output: label of the selected item
Response: b
(b: 2690 nM, a: 24.9 nM)

1 = Nc1nccc2cc(CNC(=O)c3cn(Cc4cnc(N5CCCC5)c(F)c4)nc3C(F)(F)F)ccc12
2 = CCOc1ccc(Cn2cc(C(=O)NCc3ccc4c(N)nccc4c3)c(C(F)(F)F)n2)cn1
Query: Between 1 and 2 , which one shows the larger IC50 value? // output: label of the selected item
Response: 2

A = Cc1cnn(Cc2ccc(Cn3cc(C(=O)NCc4ccc5[nH]ncc5c4)c(C(F)(F)F)n3)cc2)c1
B = O=C(NCc1cnc2[nH]ccc2c1)c1cnn(Cc2cccc(Oc3ccccc3)c2)c1
Query: Could you determine which record has the numerically smaller IC50? Candidates: A and B // output: label of the selected item
Response: A

###

We begin with a simple list: items and their reported IC50.
# study-system: Factor XIIa (Homo sapiens (Human))
# Sequence (P00748 373-615): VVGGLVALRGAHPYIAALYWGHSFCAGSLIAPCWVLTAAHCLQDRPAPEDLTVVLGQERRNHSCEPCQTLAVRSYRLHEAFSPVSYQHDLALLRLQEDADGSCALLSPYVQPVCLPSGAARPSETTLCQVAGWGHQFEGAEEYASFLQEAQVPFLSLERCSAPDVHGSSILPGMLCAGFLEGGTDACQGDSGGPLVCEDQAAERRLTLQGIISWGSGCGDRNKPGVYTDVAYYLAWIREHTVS
# assay-name: Determination of enzyme selectivity, Factor XIIa
# Assay type: biochemical
# measurement-parameters: substrate at Km concentration

Use these answered entries as a reference point.
Query: Given the entry `CCn1c(C(=O)NCc2ccc3c(N)nccc3c2)cc(C)c1Cc1ccc(N2CCCC2)nc1` , what IC50 was observed with Factor XIIa (Homo sapiens (Human))?
Response: > 10000 nM

Query: // same read-out, input: `Cc1cnn(Cc2ccc(Cn3cc(C(=O)NCc4ccc5c(N)nccc5c4)c(C4CC4)n3)cc2)c1`
Response: > 10000 nM

Query: // same read-out, input: `Nc1nccc2cc(CNC(=O)c3cn(Cc4ccc(N5CC[C@H](F)C5)nc4)nc3C(F)(F)F)ccc12`
Response: > 10000 nM

Moving on to another compound below.
Query: Given the entry `Nc1nccc2cc(CNC(=O)c3cnn(Cc4cccc(Oc5ccccc5)n4)c3)ccc12` , what IC50 was observed with Factor XIIa (Homo sapiens (Human))?
Response: > 40000 nM
